organism: Rattus norvegicus; test: DrugMatrix - Regimen: Daily Repeat; assay type: toxicity, organism-based, Sprague-Dawley; parameters: regimen Daily Repeat, gender Male, age 6-8 weeks; details: in vivo, po, 0 mg/kg, 72 h, tissue Blood, route oral GAVAGE, dose level Control, time 3 day, vehicle .5 % CMC
Reported MONOCYTE is given for each of the following compounds.
Reported Property: MONOCYTE

CCOC(=O)[C@H](CCc1ccccc1)N[C@@H](C)C(=O)N1Cc2ccccc2C[C@H]1C(=O)O
1.33%
CC(C)(Sc1cc(C(C)(C)C)c(O)c(C(C)(C)C)c1)Sc1cc(C(C)(C)C)c(O)c(C(C)(C)C)c1 [PROBUCOL]
0%
CC[C@]1(O)CC[C@H]2[C@@H]3CCC4=CCCC[C@@H]4[C@H]3CC[C@@]21C
2.12%
Clc1cc2c(cc1Cl)Oc1cc(Cl)c(Cl)cc1O2 [2,3,7,8-TETRACHLORODIBENZO-P-DIOXIN]
2.23%
CC(C(=O)O)c1ccc(-c2ccccc2)c(F)c1 (stereo not drawn) [FLURBIPROFEN]
0%
C=C(CC)C(=O)c1ccc(OCC(=O)O)c(Cl)c1Cl [ETHACRYNIC ACID]
1.4%
C[C@@H]1CC[C@H]2[C@@H](C)C(=O)O[C@@H]3O[C@@]4(C)CC[C@@H]1[C@]32OO4 [ARTEMISININ]
1.17%
C[C@@H](O)[C@H]1C(=O)N2C(C(=O)O)=C(S[C@@H]3CN[C@H](C(=O)N(C)C)C3)[C@H](C)[C@H]12 [MEROPENEM]
0%

* * *

Reported URIC ACID is given for each of the following compounds.
organism: Rattus norvegicus; experiment: DrugMatrix - Regimen: Daily Repeat; type: toxicity, organism-based, Sprague-Dawley; set-up: regimen Daily Repeat, gender Male, age 6-8 weeks; details: in vivo, po, 0 mg/kg, 120 h, tissue Plasma, route oral GAVAGE, dose level Control, time 5 day, […]
Reported Property: URIC ACID (mg/dL)

CCn1cc(C(=O)O)c(=O)c2cc(F)c(N3CCNCC3)nc21 [ENOXACIN]
1.12
OCCN1CCN(CCCN2c3ccccc3Sc3ccc(C(F)(F)F)cc32)CC1 [FLUPHENAZINE]
0.6
CC(CCc1ccc(O)cc1)NCCc1ccc(O)c(O)c1 (stereo not drawn) [DOBUTAMINE]
0.5

* * *

species: Rattus norvegicus; assay: DrugMatrix - Regimen: Daily Repeat; format: toxicity, organism-based, Sprague-Dawley; design: regimen Daily Repeat, gender Male, age 6-8 weeks; conditions: in vivo, po, 0 mg/kg, 120 h, tissue Plasma, route oral GAVAGE, dose level Control, time 5 day, […]
Reported Property: GLUCOSE (mg/dL)

OCCN1CCN(CCCN2c3ccccc3Sc3ccc(C(F)(F)F)cc32)CC1 [FLUPHENAZINE]
171.33
CCn1cc(C(=O)O)c(=O)c2cc(F)c(N3CCNCC3)nc21 [ENOXACIN]
164.17
CC[C@H](C)C(=O)O[C@H]1C[C@@H](C)C=C2C=C[C@H](C)[C@H](CC[C@@H]3C[C@@H](O)CC(=O)O3)[C@H]21 [LOVASTATIN]
161.33
CC(=O)Nc1nnc(S(N)(=O)=O)s1 [ACETAZOLAMIDE]
182.83
COc1ncnc(NS(=O)(=O)c2ccc(N)cc2)c1OC [SULFADOXINE]
182.83
C#C[C@]1(O)CC[C@H]2[C@@H]3CCc4cc(O)ccc4[C@H]3CC[C@@]21C [ETHINYL ESTRADIOL]
164.17
CC(CCc1ccc(O)cc1)NCCc1ccc(O)c(O)c1 (stereo not drawn) [DOBUTAMINE]
156
CC(C)Cc1ccc(CC(=O)O)cc1 [IBUFENAC]
169.17

Data provenance is ChEMBL document CHEMBL3885881.
